Molecular target: T1, Human LRP6-Fc (R&D Systems), recombinant human LRP6 containing the complete extracellular domain (human, UniProt O75581 20-1370)
T1 construct: Bought protein; also called hLRP6; Fc-antigen; not shown: Fc part of the bought fusion protein
T1 sequence: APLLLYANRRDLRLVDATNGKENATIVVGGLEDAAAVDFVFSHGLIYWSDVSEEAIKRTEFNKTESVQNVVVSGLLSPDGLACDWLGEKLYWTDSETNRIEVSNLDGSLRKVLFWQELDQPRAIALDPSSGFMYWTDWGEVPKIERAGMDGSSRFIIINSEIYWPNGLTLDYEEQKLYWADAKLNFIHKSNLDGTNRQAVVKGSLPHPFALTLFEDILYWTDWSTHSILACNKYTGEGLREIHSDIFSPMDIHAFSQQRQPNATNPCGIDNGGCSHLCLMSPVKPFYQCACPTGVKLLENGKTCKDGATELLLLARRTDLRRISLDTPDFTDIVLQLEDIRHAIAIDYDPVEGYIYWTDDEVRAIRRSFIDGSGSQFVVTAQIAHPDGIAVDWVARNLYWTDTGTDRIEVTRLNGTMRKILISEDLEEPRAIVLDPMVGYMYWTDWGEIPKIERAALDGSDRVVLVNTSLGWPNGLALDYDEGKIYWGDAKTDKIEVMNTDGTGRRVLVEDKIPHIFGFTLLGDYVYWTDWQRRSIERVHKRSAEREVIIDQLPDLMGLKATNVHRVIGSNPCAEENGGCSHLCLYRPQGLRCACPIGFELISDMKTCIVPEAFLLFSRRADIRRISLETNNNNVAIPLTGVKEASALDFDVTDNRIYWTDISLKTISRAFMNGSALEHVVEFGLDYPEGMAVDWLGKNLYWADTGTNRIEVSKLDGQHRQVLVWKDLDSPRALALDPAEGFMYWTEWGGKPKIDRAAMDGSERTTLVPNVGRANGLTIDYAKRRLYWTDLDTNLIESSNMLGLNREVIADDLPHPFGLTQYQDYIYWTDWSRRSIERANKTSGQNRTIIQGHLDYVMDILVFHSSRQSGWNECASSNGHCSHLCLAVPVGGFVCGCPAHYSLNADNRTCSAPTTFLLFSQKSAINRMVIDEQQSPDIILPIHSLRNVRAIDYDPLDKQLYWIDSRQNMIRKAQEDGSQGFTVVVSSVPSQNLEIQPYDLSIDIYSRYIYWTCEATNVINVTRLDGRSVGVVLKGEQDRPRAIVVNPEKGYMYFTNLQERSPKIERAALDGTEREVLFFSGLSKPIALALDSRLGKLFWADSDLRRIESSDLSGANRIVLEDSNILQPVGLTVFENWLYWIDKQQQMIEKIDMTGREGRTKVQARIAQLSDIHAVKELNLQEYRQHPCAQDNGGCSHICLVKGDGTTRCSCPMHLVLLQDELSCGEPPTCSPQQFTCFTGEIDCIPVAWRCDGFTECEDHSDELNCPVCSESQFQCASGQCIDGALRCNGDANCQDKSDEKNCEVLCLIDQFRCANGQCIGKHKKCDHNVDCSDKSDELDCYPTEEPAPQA
Assay: SPR (BIAcore), mAb captured on anti-mouse chip, Fc-antigen injected, 1:1 model
Here the recorded koff is given for each entry.
MEASUREMENT_TYPE: koff

BINDER	MEASUREMENT_TYPE	REPORTED_RESULT
anti-LRP6 monoclonal antibody 923.3 (antibody, V domains shown, Murine hybridoma mAb, protein G purified; also called VH12/VL12) VH: DVKLVESGGGLVKVGGSLKLSCAASGFTFSSYYMSWVRQTPEKRLELVAAININGGSTYYPDTVKGRFTISRDNAKNTLYLQMSSLKSEDTAFYYCASELAGYGTPFAYWGQGTLVTVSA VL: DIVLTQSPATLSVTPGDSVSLSCRASQSISNNLHWYQQKSHESPRLLIKYASQSISGIPSRFSGSGSGTDFTLSINSVETEDFGMYFCQQSNNWPLTFGAGTKLEL	koff	7.4e-05 s⁻¹
anti-LRP6 monoclonal antibody 240.8 (antibody, V domains shown, Murine hybridoma mAb, protein G purified; also called VH4/VL4) VH: DVKLVESGGGLVKLGGSLKLSCAASGFTFSSYYMSWVRQTPEKRLELVAAINSNGGSTYYADTMKGRFTISRDNAKNTLYLQMISLKSEDTAFYYCASELAGYGTPFAYWGHGTLVTVSA VL: DIVLTQFPATLSVTPGDSVSLSCRASQSISSNLHWYQQTSHESPRLLIKYASQSISGIPSRFSGTGSGTDFTLSINSVETEDFGMYFCQQSNTWPLTFGAGTKLEL	koff	4e-05 s⁻¹
anti-LRP6 monoclonal antibody 856.6 (antibody, V domains shown, Murine hybridoma mAb, protein G purified; also called VH11/VL11) VH: QVQLQQSGPELVKPGASVRISCKASGYTFTTYYIHWLKQRPGQGLEWIGWIFPGNVNTKYNAKFKGKATLTADKSSSTAYMQLSSLTSEDSAVYFCAREGLQYYFDYWGQGTTLTVSS VL: QIVLTQSPAIMSASPGEKVTISCSANSSVRFMFWYQQKPGSSPKPLIYRTSNLASGVPARFSGSGSGTSYSLTISSMEAEDAATYYCQQYHSYPWTFGGGTKLEI	koff	4.5e-05 s⁻¹
anti-LRP6 monoclonal antibody 1293.11 (antibody, V domains shown, Murine hybridoma mAb, protein G purified; also called VH20/VL20) VH: QVQLQQSGPELVKPGASVRISCKASGYTFTTYYIHWLKQRPGQGLEWIGWIFPGNVNTKYNAKFKGKATLTADKSSSTAYMQLSSLTSEDSAVYFCAREELQYYFDYWGQGSALTVSS VL: QIVLTQSPAIMSASPGEKVTISCSANSSVRFMFWYQQKPGSSPKPLIYRTSNLASGVPARFSGSGSGTSYSLTISSMEAEDAATYYCQQYHSYPWTFGGGTKLEI	koff	0.000124 s⁻¹
anti-LRP6 monoclonal antibody 1281.1 (antibody, V domains shown, Murine hybridoma mAb, protein G purified; also called VH19/VL19) VH: QVQLQQSGAELAKPGASVKISCKASGYTFTSYWMHWVKQRPGQGLEWIGYINPNTGYSEYNQKFRDKATLTANKSSSTANMQLSSLTSDDSAVYYCARTAQYYGSPRGYYAMDSWGQGTSVTVSS VL: DIVMTQAAFSNPVTLGTSASISCRSSKSLLHSNGITYLCWFLQKPGQSPQLLIYQMSNLASGVPDRFSSSGSGTDFTLRISRVEAEDVGVYFCAQNLDLPWTFGGGTKLEI	koff	8.3e-05 s⁻¹
